B1: SNX3 (parent)
chain: FLRQLPFRGDDGIFDDNFIEERKQ

Variants of: B1
Test: protein stability index of a GFP-peptide fusion (GPS, HEK-293T) (PSI 1-6); higher = more stable;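 further: lentivirally expressed fusions sorted by FACS into six bins by GFP to DsRed ratio, PSI derived from sequencing read proportions per bin multiplied by bin number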
Details: c terminus: a fixed tail appended
Property Name: protein stability index

In [3]: df
Out[3]:
    changes  observed_result
 0     E21D             4.12
 1     Q24M             2.56
 2     I19Y             3.15
 3      L5Y             2.78
 4     D16L             2.91
 5      R3L             1.94
 6     I19V             3.73
 7     G12F             3.03
 8     D10P             3.42
 9     D15F             2.74
10     Q24S             2.75
